Biological target: T1, human Flag-tagged soluble TWEAK (amino acids 106-249) (human, UniProt O43508 106-249)
T1 construct: the tag is put first here only by convention; also called Human TWEAK; not shown: Flag tag
T1 sequence (looked up): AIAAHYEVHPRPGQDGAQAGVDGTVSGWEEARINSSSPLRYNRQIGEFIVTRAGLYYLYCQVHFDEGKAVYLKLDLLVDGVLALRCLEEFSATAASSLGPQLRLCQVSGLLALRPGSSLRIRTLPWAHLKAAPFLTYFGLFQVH
Test: receptor interaction ELISA: antibody pre-incubated with human Flag-tagged soluble TWEAK, binding to coated human Fn14:Fc
measure: IC50 (µg/mL)
Write it as a number; the unit µg/mL goes unstated.

Recorded results for 4 binders are shown here.
>>> readout_value("Antibody 21 (antibody, V domains shown) VH: QVQLQESGPGLVKPSETLSLTCAVSGYSIRSGYWWSWIRQPPGKGLEWIGQIYNKGNTDNNPALKSRVTISVDTSKNQFSLKLSSVTAADTAVYYCARVFWDDAYFDVWGQGTMVTVSS VL: EIVLTQSPGTLSLSPGERATLSCKASQSVSIGPIHLMHWYQQKPGQAPRLLIYGASNPESGIPDRFSGSGSGTDFTLTISRLEPEDFAVYYCQQGKESPRTFGQGTKLEIK")
0.012
>>> readout_value("Antibody 15 (antibody, V domains shown) VH: QVQLQESGPGLVKPSETLSLTCAVSGYSIRSGYWWSWIRQPPGKGLEWIGQIYNKGNTDNNPALKSRVTISVDTSKNQFSLKLSSVTAADTAVYYCARVFWDDAYFDVWGQGTMVTVSS VL: EIVLTQSPATLSLSPGERATLSCKASQSVSIGPIHLMHWYQQKPGQAPRLLIYGASNPESGIPARFSGSGSGTDFTLTISSLEPEDFAVYYCQQGKESPRTFGQGTKLEIK")
0.014
>>> readout_value("TW202 (antibody, V domains shown, Armenian hamster monoclonal antibody; also called Antibody 202) VH: QLQLQESGLGLVKPSQSLTLTCSVTGFSITTPDYSWHWIRQLPGQTLEWMGFLYYEGDTYYNPSLKSRISIARDASKNQFFLQLKAVTTEDTATYFCARRKYSGYGNWFAYWGQGTLVTVSL VL: QPVLTQSPSASASLRASVKLTCTLSSQHSTYYIEWYQQRPDKAPKYVMYLDSDGSHIKGDGIPDRFSGSSSGAHRYLSISNLQPEDEAIYHCGVYDSTAGAVFGSGTQLTVLG")
0.0092
>>> readout_value("Antibody 22 (antibody, V domains shown) VH: QVQLQESGPGLVKPSETLSLTCAVSGYSIRSGYWWSWIRQPPGKGLEWIGQIYNKGNTDNSPSLKSRVTISVDTSKNQFSLKLSSVTAADTAVYYCARVFWDDAYFDVWGQGTMVTVSS VL: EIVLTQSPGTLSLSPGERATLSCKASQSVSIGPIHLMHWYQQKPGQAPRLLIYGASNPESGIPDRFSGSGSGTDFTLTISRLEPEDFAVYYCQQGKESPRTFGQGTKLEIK")
0.017

Form field: reported IC50 of Antibody 16 (antibody, V domains shown) VH: QVQLQESGPGLVKPSETLSLTCAVSGYSIRSGYWWSWIRQPPGKGLEWIGQIYNKGNTDNSPSLKSRVTISVDTSKNQFSLKLSSVTAADTAVYYCARVFWDDAYFDVWGQGTMVTVSS VL: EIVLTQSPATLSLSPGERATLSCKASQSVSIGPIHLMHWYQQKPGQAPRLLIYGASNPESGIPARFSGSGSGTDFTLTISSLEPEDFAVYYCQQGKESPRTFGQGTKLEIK
0.022
